normalised viability values for the molecules below.
system: MDA-MB-231; assay: normalised viability (% of control), CellTiter-Blue; higher = more viable cells (about 100 = DMSO control); conditions: 10 nM; incubation time: 72 h

| molecule | normalised viability (%) |
| --- | --- |
| CC(C)Cn1cnc2c(N)nc3ccccc3c21 | 84.8 |
| C[C@@H](Oc1cc(-c2cnn(C3CCNCC3)c2)cnc1N)c1c(Cl)ccc(F)c1Cl | 89.8 |
| N.N.[Cl][Pt][Cl] [Cisplatin] | 99.2 |
| O=C1CCC(N2C(=O)c3ccccc3C2=O)C(=O)N1 (stereo unspecified) [Thalidomide] | 97.2 |
| CN(N=O)C(=O)N[C@@H](C=O)[C@@H](O)[C@H](O)[C@H](O)CO | 101 |
| COc1cc([C@@H]2c3cc4c(cc3[C@@H](O[C@@H]3O[C@@H]5CO[C@@H](C)O[C@H]5[C@H](O)[C@H]3O)[C@H]3COC(=O)[C@H]23)OCO4)cc(OC)c1O [Etoposide] | 121 |
